Below is a list of entries, each paired with its recorded Solubility value.
assay details: Solubility in PBS
Format: physicochemical
Procedure: After ultracentrifugation of the PBS solution, the supernatant was analyzed by HPLC and compared to an HPLC injection 50 μM peptide DMSO solution. Solubility was determined by: [(Area of PBS peak)/(Area of DMSO peak)]*50 uM.
Field: numeric (µM). Do not append units.

See these solved cases before continuing.
INSERT INTO measurements (molecule, result_number) VALUES
  ('CCCC[C@@H]1NC(=O)[C@H](CC(=O)O)NC(=O)[C@]2(CC=CCCCC3(CCCC=CCCCCCC[C@@](C)(C(=O)N[C@@H](Cc4ccccc4)C(=O)N[C@@H](Cc4csc5ccccc45)C(=O)N[C@@H](CCC(N)=O)C(N)=O)NC(=O)[C@H](C)NC(=O)[C@H](Cc4ccccc4)NC(=O)[C@H](C)NC(=O)[C@H](C)NC(=O)[C@H](CCC(=O)O)NC(=O)[C@H](CC(=O)O)NC3=O)NC1=O)CCCN2C(C)=O (stereo partly drawn)', 50),
  ('CC(=O)N1CCC[C@]12CC=CCCCC1(CCCC=CCCCCCC[C@@](C)(C(=O)N[C@@H](Cc3ccccc3)C(=O)N[C@@H](Cc3c[nH]c4ccccc34)C(=O)N[C@@H](CCC(N)=O)C(N)=O)NC(=O)[C@H](C(C)C)NC(=O)[C@H](Cc3ccccc3)NC(=O)[C@H](C)NC(=O)[C@H](C)NC(=O)[C@H](CC(=O)O)NC(=O)[C@H](CC(=O)O)NC1=O)NC(=O)[C@H](C)NC(=O)[C@H](CC(=O)O)NC2=O (stereo partly drawn)', 50);

Please look at the following molecule next.
Query: Could you please provide reported Solubility for CC(=O)N1CCC[C@]12CC=CCCCC1(CCCC=CCCCCCC[C@@](C)(C(=O)N[C@@H](Cc3ccccc3)C(=O)N[C@@H](Cc3csc4ccccc34)C(=O)N[C@@H](CCC(N)=O)C(N)=O)NC(=O)[C@H](CCC(N)=O)NC(=O)[C@H](Cc3ccccc3)NC(=O)[C@H](C)NC(=O)[C@H](C)NC(=O)[C@H](CCC(=O)O)NC(=O)[C@H](CC(=O)O)NC1=O)NC(=O)[C@H](C)NC(=O)[C@H](Cc1nn[nH]n1)NC2=O (stereo partly drawn) [I-417] ? Thanks!
Result: 30
